# EXPERIMENT: Pharmacokinetic study in rats (plasma, LC-MS/MS, NCA)
# EXPERIMENTAL PARAMETERS: male, Sprague-Dawley, rat, plasma, po, 100 mg/kg, Mean plasma concentration, rats, 12 h, single p.o. 100 mg/kg
PROPERTY: concentration at 12 h (ng/mL)
Field format: number, assumed ng/mL, no unit text.

IN: Which concentration at 12 h value is on record for CC(=O)Nc1ccc(NC(=O)c2ccc(C(C)=O)o2)cc1 [Compound 25a] ?
OUT: 173

----------
# EXPERIMENT: Tissue distribution study in rats
# Type: in vivo, SD rats
# EXPERIMENTAL PARAMETERS: male, Sprague-Dawley, rat, muscle, single oral dose 100 mg/kg
# From the text: Compound 25a was extensively distributed in most tissues of rats, and the drug concentration was high in organs with abundant hemoperfusions, such as the kidney, heart, lung, and spleen, among which the drug concentration was the highest in the kidney, with a tissue plasma distribution coefficient Kp = 1.67. […]
PROPERTY: half-life (h)
Kindly answer with a numeric value in h, unit omitted.

IN: Dear colleague, I am looking for the recorded half-life of the following compound: CC(=O)Nc1ccc(NC(=O)c2ccc(C(C)=O)o2)cc1 [Compound 25a]
OUT: 3.2
